Ref: ChEMBL document CHEMBL3988442

molecular target: AMP-activated protein kinase, AMPK (Homo sapiens) (UniProt P54646+O43741+P54619+Q9UGJ0+Q9Y478+Q13131+Q9UGI9); assay: AMP-dependent Kinase enzyme assay. An in vitro enzyme assay that detects ADP turnover that is directly proportional to AMPK activity. This uses naive AMPK that is activated during the assay with MK-8722; type: functional; design: scale not given: direction of the effect not stated beside the values; settings: 30 µM
recorded.endpoint: Percent Effect (%)
Give your result in % as a bare value.

Data request: Consider the molecule shown here: CC(C)c1noc(C(C)N2CCC(c3nc4ccccc4[nH]3)CC2)n1 (stereo not drawn) What is its recorded Percent Effect?
Data returned: 0.872

Data request: Quick one: Percent Effect of CCc1cccc(C)c1NC(=O)NCCCN(CC)S(C)(=O)=O ?
Data returned: 22.2

Data request: Give the measured Percent Effect of Cc1cc(NC(C)c2n[nH]c(C)n2)n2nc(C)c(C)c2n1 (stereo not drawn) .
Data returned: 20.5

Data request: State the recorded Percent Effect for this entry: COc1cc(F)ccc1NC(=O)NCCNC(=O)OC(C)(C)C
Data returned: -6.81

Data request: // returns reported Percent Effect for input O=C(CN1CC(c2ccccc2)CC1=O)N1CCC(c2ncc[nH]2)CC1 (stereo not drawn)
Data returned: 2.5

Data request: Need Percent Effect, item Cc1nc(NC(=O)NCCCN2CCC(C(N)=O)CC2)sc1C
Data returned: 6.51

Data request: Requested read-out: Percent Effect. Entry: COc1c(C)cnc(CN2CCCC2c2noc(C)n2)c1C (stereo not drawn)
Data returned: -12

Data request: Data request, read-out Percent Effect, for COc1ccsc1C(=O)NC1CCN(c2cccc(F)c2)CC1
Data returned: -1.16

Data request: Would you kindly share the measured Percent Effect for O=S(=O)(NCc1ccnc(-n2ccnc2)c1)c1cncc(F)c1 ?
Data returned: -5.49

Data request: May I ask what Percent Effect has been recorded for CSc1ccc(C(=O)C2CCCN(C(=O)CCCn3cncn3)C2)cc1 (stereo not drawn) ?
Data returned: 9.79

Data request: # get_value(readout='Percent Effect', item= C/C(Cl)=C/CNC(=O)[C@H]1CC[C@]2(CC1)CN(C)C(=O)c1ccccc1O2 )
Data returned: 7.27

Data request: Which measured Percent Effect value corresponds to CNC(=O)c1ccnc(CC2COc3c(cccc3OC)C2)c1 (stereo not drawn) ?
Data returned: 7.88

Data request: What value of Percent Effect has been reported for the following molecule? CC(C)c1nnc2n1CCN(Cc1cccc3c1OCCO3)C2
Data returned: 12.9

Data request: Find the recorded Percent Effect belonging to COc1cccc(S(=O)(=O)N2CCN(C)[C@@H]3CS(=O)(=O)C[C@@H]32)c1 and report it.
Data returned: 1.52

Data request: Report Percent Effect for Cc1cc(=O)n2nc(Oc3ccc(Cl)c(C)c3)sc2n1 please.
Data returned: -6.95

Data request: Entry under review: COCc1ncc(CN2CCC3(CCNCC3)CC2)cn1 . Reported Percent Effect?
Data returned: -3.83

Data request: Which Percent Effect reading was recorded for the molecule CCN(C)C(=O)c1cccc(S(=O)(=O)NCCc2nc(C)cc(=O)[nH]2)c1 ?
Data returned: -5.87

Data request: Item CC(O)CN1CCN(Cc2coc(-c3cccc(Cl)c3)n2)CC1 (stereo not drawn) has what recorded Percent Effect?
Data returned: -7.56

Data request: Item CN1CCN(CCCOc2ccccc2CN2C[C@H]3CC[C@H]2C3)CC1 has what recorded Percent Effect?
Data returned: -5.02

Data request: Would you kindly share the measured Percent Effect for CC(=O)N1CCC(Cc2ccc(-c3ccnn3C)nc2)CC1 ?
Data returned: -2.26

Data request: Requested field: Percent Effect. Item: O=C(CN1CC(c2nc(C3CC3)no2)C1)NCc1ccc(F)cc1
Data returned: 3.03

Data request: Consider the molecule shown here: O=C(CCn1cccn1)NCCOc1ncc(Cl)cc1Cl What is its recorded Percent Effect?
Data returned: 2.54

Data request: Can you look up the measured Percent Effect of Cc1ccc(N2C[C@@H]3CN(C(=O)NC4CCCC4)C[C@]3(C(=O)O)C2)nn1 for me?
Data returned: -1.71
